# key: entry, value: growth inhibition
experimentDescription: NCI Yeast Anticancer Drug Screen. Data for the mec2-1 strain (AID 157)
settings: S. cerevisiae mec2-1 strain, at 50.0 µM, active compounds read high
About 79,000 compounds went through this panel and 15% of them were active in at least one assay; those are over-represented in the sample as a whole. Calls of active or inactive are those of the source. Rule as the data show it: active = growth inhibition above about 70%; inactive = the rest.
reportedEndpoint: growth inhibition

compound	reportedEndpoint	reportedResult
CC(C)(C)/[N+]([O-])=C/C(c1ccccc1)C(/C=[N+](/[O-])C(C)(C)C)c1ccccc1 (centres undefined)	growth inhibition	-4.5% (inactive)
N#CC1NCNC1N (centres undefined)	growth inhibition	0.65% (inactive)
CCOC(=O)C(C)CC(=O)C(C)CC(=O)C(C)C (centres undefined)	growth inhibition	6.1% (inactive)
COc1ccc(/C=N\N2CN(C(CC(N)=O)C(=O)O)C(O)(CCl)N=C2N)cc1OC (centres undefined)	growth inhibition	-6.9% (inactive)
O=[N+]([O-])c1ccc(NN=C2CCCCCC2)c([N+](=O)[O-])c1	growth inhibition	8.35% (inactive)
COc1cc([N+](=O)[O-])c2ncccc2c1	growth inhibition	-16% (inactive)
O=C(CCN1CCC2CCC(C2)C1)c1ccc(Cl)cc1 (centres undefined)	growth inhibition	3.35% (inactive)
C/C(=N\NC(=O)/C(C#N)=C\c1ccc(N(CCC#N)CCC#N)cc1)c1ccccc1	growth inhibition	-14.2% (inactive)
CC(C)NC(=O)CC(NCc1ccccc1)C(=O)O (centres undefined)	growth inhibition	6.8% (inactive)
O=[N+]([O-])c1ccc(N/N=C/c2ccccc2Cl)c([N+](=O)[O-])c1	growth inhibition	-9.55% (inactive)
c1ccc2c(c1)Cc1c(Cc3csc4ccccc34)ccc3cccc-2c13	growth inhibition	-22.4% (inactive)
CCOc1c(OC)ccc(C(C)=O)c1O	growth inhibition	-15.2% (inactive)
COCCCNC(=O)C1C(=O)C(=O)N(CCCOC)C1=O (centres undefined)	growth inhibition	-3.45% (inactive)
O=[N+]([O-])c1nccn1CCCl	growth inhibition	-3.75% (inactive)
CC(C)CC(NC(=O)c1cc([N+](=O)[O-])cc([N+](=O)[O-])c1)C(=O)O (centres undefined)	growth inhibition	-2.7% (inactive)
CC(=O)Nc1cccc(OCOc2ccc([N+](=O)[O-])cc2)c1	growth inhibition	20.3% (inactive)
CCCc1cc2c3c(c(=O)oc2cc1O)CCCCC3	growth inhibition	19.4% (inactive)
NC(=S)N/N=C/c1cc([N+](=O)[O-])ccc1O	growth inhibition	-3.4% (inactive)
C/C([O-])=N\[N+](C)(C)Cc1ccccc1	growth inhibition	0.8% (inactive)
CC[N+](C)(CC)c1ccccc1	growth inhibition	-54.3% (inactive)
Cc1cccc(CN(C)C)c1C=C(c1ccccc1)c1ccccc1	growth inhibition	-1% (inactive)
O=C(NCCN1CCCCC1)c1ccc(I)cc1	growth inhibition	0.95% (inactive)
O=C[C@@H](CO)O[C@H](C=O)c1c[nH]c(=O)[nH]c1=O	growth inhibition	-13.2% (inactive)
CNC(=O)Nc1ccc(C(=O)O)cc1	growth inhibition	4.35% (inactive)
c1ccc(-c2c(-c3ccc4c(c3)CCCC4)c(-c3ccccc3)c3c(c2-c2ccccc2)-c2cccc4cccc-3c24)cc1	growth inhibition	2.8% (inactive)
CNC(=O)OCc1c(COC(=O)NC)c(-c2ccc(C(C)(C)C)cc2)n(C)c1C	growth inhibition	12.9% (inactive)
CCCCCCCCCCCCCC(=O)CC	growth inhibition	-3.35% (inactive)
c1ccc2c(c1)ccc1cccc[n+]12	growth inhibition	-7.75% (inactive)
O=CNC(NC=O)c1ccccc1[N+](=O)[O-]	growth inhibition	20.8% (inactive)
CNS(=O)(=O)c1ccc(Cl)cc1	growth inhibition	11.7% (inactive)
CC(C)(C)OC(=O)c1c2ccccc2cc2ccccc12	growth inhibition	12.4% (inactive)
CC(C)=NNC(=O)c1ccccc1CC(O)(c1ccccc1)c1ccccc1	growth inhibition	5.25% (inactive)
Cc1ccc(S(=O)(=O)OCC2COC(C(C)C)OC2)cc1 (centres undefined)	growth inhibition	-2.95% (inactive)
CCOC(=O)C(NC(=O)c1cccc(Cl)c1)(N1CCN(c2cc3c(cc2F)c(=O)c(C(=O)O)cn3CC)CC1)C(F)(F)F (centres undefined)	growth inhibition	-39.5% (inactive)

----------
experimentDescription: NCI Yeast Anticancer Drug Screen. Data for the cln2 rad14 strain (AID 165);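 also: 0% = growth equal to vehicle treated cultures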
settings: S. cerevisiae cln2 rad14 strain, at 50.0 µM, active compounds read high
Compounds without any hit were thinned out: in the full panel of roughly 79,000, 15% have a hit.

compound	growth inhibition / %
CN1CCC(C[CH2][Sn]([c]2ccccc2)([c]2ccccc2)[c]2ccccc2)CC1	63
Cc1cc([N+](=O)[O-])cc(C)c1N	-15
N#CCc1ccccc1C(C#N)C(=O)CCC(=O)C(C#N)c1ccccc1CC#N (centres undefined)	-28.4
C[N+]1(C)CCCC(OC(=O)C(O)(c2ccccc2)c2ccccc2)C1 (centres undefined)	-18.9

----------
experimentDescription: NCI Yeast Anticancer Drug Screen. Data for the rad50 strain (AID 155);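 also: 0% = growth of vehicle-only cultures of the same strain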
settings: S. cerevisiae rad50 strain growth inhibition; at 50.0 µM
Method: Growth inhibition of yeast strains with defined genetic alterations is measured as a screen for potential anti-cancer activity. Selected strains with alterations in DNA damage repair or cell cycle control were exposed to compounds and growth inhibition was measured relative to vehicle treated controls. The strain used in this assay is rad50
The panel holds about 79,000 compounds, 15% with a hit somewhere; the sample as a whole holds those more often. Active and inactive are the calls of the source. No stated cut-off is given here; in the data, active means growth inhibition above about 70%; inactive means the rest.
Outcomes: label 1 (active), label 0 (inactive)

molecule	label
CSc1nc2nc[nH]c2c(=O)[nH]1	label 0
Cc1cc(C)c(C(C)(C)O)c(C)c1	label 0
COC(=O)c1ccc(-n2c(C)nc(=O)c(-c3ccccc3)c2C)cc1	label 0
Cc1ccc(S(=O)(=O)Oc2ccccc2C(=O)O)cc1	label 0
CC(C)C1CC(C)(C)C2CC3OC(C(C)C)CC(C)(C)C3CC2O1 (stereo not given)	label 0
O=C(c1cccc([N+](=O)[O-])c1)c1cccs1	label 0
O=C(O)c1cc(Br)cc([N+](=O)[O-])c1	label 0
Cc1ccc([N+](=O)[O-])cc1NC(=O)Cc1ccccc1	label 0
COC(=O)c1ccccc1NC(=O)C(=O)NNC(=O)c1ccncc1	label 0
CO/C(=N\N=C\c1ccccc1F)c1ccncc1	label 0
CC(C)C1CCC(O)CC1 (stereo not given)	label 0
COc1cc(CCNC2=CC(=O)c3cccnc3C2=O)ccc1O	label 0
O=C(O)C(Cc1ccccc1)NS(=O)(=O)Cc1ccccc1 (stereo not given)	label 0
CCOCCOC(=O)OCCOCC	label 0
Fc1c(F)c(F)c(Nc2c(F)c(F)c3c(F)c(F)c(F)c(F)c3c2F)c(F)c1F	label 0
O=C(Nc1nc2ccccc2n1Cc1ccc(Cl)cc1)C(=O)NC12CC3CC(CC(C3)C1)C2	label 0
COC(=O)C1CCC(C(=O)OC)CC1 (stereo not given)	label 0
CCC(C)(C)c1ccc(OCCOc2ccc(C(=O)O)cc2[N+](=O)[O-])cc1	label 0
COC(=O)CC12CCCC(C)(CC(=O)N1)C2 (stereo not given)	label 0
O=C(c1ccccc1)[C@H]1Nc2ccc(Cl)cc2[C@H]2c3ccccc3O[C@H]21	label 0
O=C(NCc1cccc2ccccc12)Nc1ccccc1Cl	label 0
Cc1ccc2oc(=O)c(C(=O)Nc3nc(C45CC6CC(CC(C6)C4)C5)cs3)cc2c1	label 0
CC(C)=CCOc1cc(NC(=S)c2ccsc2C)ccc1Cl	label 0
[O-][n+]1c2ccc(Cl)cc2nc2ccc(Cl)cc21	label 0
CC1CC(c2ccccc2)S(=O)(=O)O1 (stereo not given)	label 0
N/C(CCOCC/C(N)=N\O)=N/O	label 0
Cc1ccc(CNC(=S)NC2CCCCC2)cc1C	label 1
NC(N)=NS(=O)(=O)c1ccc(NC(=O)c2cccc3c(N)c4ccccc4nc23)cc1	label 0
Cc1c2ccccc2c(CN2CC(O)CC2C(=O)O)c2ccccc12 (stereo not given)	label 1
COC(=O)NC1(NC(=O)OC)NC(=O)c2cc(OC)c(OC)cc2N1	label 0
CCCNC(=O)c1ccc(Cl)cc1Cl	label 0
COC(=O)/C=C(/C(=O)OC)c1c(C)c(C)c2c(C)cc(C)cc(C)c1-2	label 0
COc1ccc(-c2cc(-c3ccccc3)c(-c3ccccc3)nn2)cc1CN1CCOCC1	label 0
CC1=CC(=O)c2ccc(F)cc2C1=O	label 0
Cc1cnc2cc(Cl)ccc2c1NCCN(CC(C)C)CC(C)C	label 0

----------
experimentDescription: NCI Yeast Anticancer Drug Screen. Data for the rad50 strain (AID 155);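 also: 0% = growth of vehicle-only cultures of the same strain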
settings: S. cerevisiae rad50 strain growth inhibition; at 50.0 µM; active compounds read high
Procedure: Growth inhibition of yeast strains with defined genetic alterations is measured as a screen for potential anti-cancer activity. Selected strains with alterations in DNA damage repair or cell cycle control were exposed to compounds and growth inhibition was measured relative to vehicle treated controls. The strain used in this assay is rad50
The panel holds about 79,000 compounds, 15% with a hit somewhere; the sample as a whole holds those more often.

molecule	growth inhibition [%]
CC(C)C1OC2(CCCC2)OCC1(C)C (stereo unspecified)	-10.2
CCNC(=O)OCCN(CCOC(=O)NCC)CCc1ccccc1	8.7
CC1=C(C(=O)OC2CC3CCC2(C)C3(C)C)C2Nc3ccccc3N(C)C2O1 (stereo unspecified)	-4.75
CCN(CC)CCNc1ccc(C)c2sc3ccc(N)cc3c(=O)c12	30.3
Cc1ccc(N=C(Nc2ccc(C)cc2)C(c2ccccc2)c2ccccc2)cc1	12
CC(=O)Oc1c(C(C)(C)C)cc([N+](=O)[O-])c(C)c1[N+](=O)[O-]	97
Nc1nnc(-c2cccc(-c3nnc(N)o3)c2)o1	-13.5
O=C(O)C1C(CCl)=C1CCl	-15.8
CC(=O)Oc1ccc(NCNc2ccc(OC(C)=O)cc2)cc1	-11.8
O=C(C1C2C=CC(C2)C1C(=O)N1CCCCC1)N1CCCCC1 (stereo unspecified)	2.5
COC(=O)C(C(=O)C(=O)Nc1cccc(OC)c1)c1cnc2ccccc2n1 (stereo unspecified)	-16.4
